Entries annotated with measured TGI
tested on: SW-620 colon; assay: NCI tumour cell line growth inhibition, 48 h

Example entries begin here.
• N#CC1=C(N)OC2=C(CSc3ccccc32)C1c1ccc(Br)cc1 (stereo not drawn) = 23.8 µM
• COc1ncc(C=C(C#N)C#N)c(OC)n1 = > 100 µM
• CCCCCCCCCC[C@@H](O)[C@H]1CC[C@H]([C@H]2CC[C@H]([C@H](O)CCCCCCCCCC[C@@H]3CC(CC(C)=O)C(=O)O3)O2)O1 (stereo partly drawn) = > 50 µM
• NC(CO)Cc1cnc[nH]1 (stereo not drawn) = > 100 µM
• CSC1=NC=CCN1C = > 100 µM

Which TGI is reported for this compound? `O=C(Nc1ccc(I)cc1C(=O)NCCO)c1cccs1`
> 100 µM

Also `Cc1nn(-c2ccc(F)cc2)c2ncnc(Nc3ccc(NC(=O)Nc4ccc(Cl)c(C(F)(F)F)c4)cc3)c12` ?
10.8 µM

Also `COc1ccc(C(=S)N2CCN(c3cccc(Cl)c3)CC2)cc1` ?
> 100 µM

====

tested on: SW-620 colon; test: NCI tumour cell line growth inhibition, 48 h
Entries annotated with measured TGI

• COc1cc(COC(=O)N[C@H](C(=O)O)C(C)(C)C)c([N+](=O)[O-])cc1OC = > 100 µM

Which TGI is reported for this compound? `O=C(Nc1nc2ccccc2s1)OCC(F)(F)F`
> 100 µM

Also `CC(C)(C)OC(=O)NC(C)(C)C(=O)NCCC(=O)O` ?
> 100 µM

Also COC(=O)C1=C(C(=O)OC)C2OC1C1C2C2(C)C(C)=C(C)C1(C)S2=O (stereo not given) ?
12.6 µM

Also N#CC1(c2nc3ccccc3o2)C(=O)C(=O)N(C2C3CC4CC(C3)CC2C4)C(=O)C1=O (stereo not given) ?
> 100 µM

====

test system: SK-OV-3 ovarian; experiment: NCI tumour cell line growth inhibition, 48 h
Measured Property: TGI

• COc1ccc(C(=O)Nc2ncc(Cc3ccc(Cl)cc3)s2)cc1 = > 100 µM
• CN1CCN(CC#Cc2cccc(C(=O)c3cnn(-c4ccc(F)cc4)c3N)c2)CC1 = > 25 µM
• O=C(O)c1ccc(NC(c2ccccc2)c2ccc3cccnc3c2O)cc1 (stereo not given) = > 100 µM
• Cc1ccc(-c2cc(N)n(-c3nc4c([nH]3)c(=O)n(C)c(=O)n4C)n2)cc1 = 16.1 µM
• Cc1ccccc1C(C#N)C(=O)C(=O)Nc1nc([N+](=O)[O-])cs1 (stereo not given) = > 100 µM
• CC(C)(C)c1cc(O)c(O)c(C(C)(C)C)c1 = 22.6 µM
• c1ccc([P+](CCNCCNCC[P+](c2ccccc2)(c2ccccc2)c2ccccc2)(c2ccccc2)c2ccccc2)cc1 = > 100 µM
• CCN1CCN(c2nc(NCCCNc3ccnc4cc(Cl)ccc34)c3ccccc3n2)CC1 = 9.23 µM
• CC1(C)N=C(N)N=C(N)N1c1ccc(CCCCc2ccc(S(=O)(=O)F)cc2)cc1 = > 85 µM

Shifting focus to the compound that follows.
Which TGI is reported for this compound? `CCOP(=O)(OCC)[C@H](O)c1ccsc1`
> 100 µM

====

system: TK-10 renal; assay: NCI tumour cell line growth inhibition, 48 h
Entries annotated with measured TGI

Which TGI is reported for this molecule? `O=C(CSc1nc2ccc([N+](=O)[O-])cc2[nH]1)Nc1ccc(F)c(Cl)c1`
15.9 µM

Also `COc1ccc2c(c1)c1c(n2CCN2CCOCC2)-c2ccccc2CC1` ?
> 100 µM

Also `COC(=O)c1cc(CC(C)C)c2c(c1)[nH]c1ccccc12` ?
> 100 µM

Also `CN1CCN(Cc2ccc(C(=O)Nc3cncc(C#Cc4cnc(N)c5ccccc45)c3)cc2C(F)(F)F)CC1` ?
3.74 µM

Also `Cc1nn(-c2ccc(S(=O)(=O)[O-])cc2)c([O-])c1N=[N+](C)c1ccc(-c2ccc(N=Nc3ccc4c(S(=O)(=O)[O-])cc(S(=O)(=O)[O-])c(N)c4c3[O-])c([O-])c2)cc1[O-].[Cu+2].[Cu+2].[Na+]` ?
> 100 µM

Also CCC(=O)C(c1ccccc1)c1ccccn1 (centres undefined) ?
> 100 µM

Also `N#CC(=C1SCS1)[N+](=O)[O-]` ?
13.4 µM

Also N#CC1(c2nc3ccccc3o2)C(=O)C(=O)N(C2C3CC4CC(C3)CC2C4)C(=O)C1=O (centres undefined) ?
> 100 µM

Also `Cc1c(S(=O)(=O)c2ccccc2)c(N)n(Cc2ccccc2)c1C` ?
> 100 µM

====

Entries annotated with measured TGI
test system: HCT-116 colon; assay: NCI tumour cell line growth inhibition, 48 h
API: value field is a number in µM; no unit string.

Example entries begin here.
- CC(=O)OCC1OC(O[C@@H]2C[C@H]3C(C)(C)[C@H](OC(C)=O)CC[C@]3(C)[C@H]3CCC4=C([C@@H](C)C[C@@H](O)[C@H](O)C(C)(C)O)CC[C@@]4(C)[C@@]32C)C(O)C(O)C1O (some centres undefined): 27.2
- NC(N)=N/N=C(/c1ccccc1)c1ccc(F)cc1: 4.15
- O=C1CC2(C[C@@H]3CCCCCCCCC[C@@H](C3)C2)N1 (some centres undefined): 33.6
- O=c1oc2ccccc2c(O)c1C(c1cc(OCc2ccccc2)cc(OCc2ccccc2)c1)c1c(O)c2ccccc2oc1=O: 17.5
- CCSc1nnc(CSc2nc(-c3ccccc3)c(-c3ccccc3)[nH]2)n1-c1ccccc1: 36.2

Shifting focus to the molecule that follows.
Which TGI is reported for this molecule? `COC(=O)C(=O)CC(=O)CCn1ncc(Cl)c(Cl)c1=O`
23.7

====

Entries annotated with measured TGI
system: MDA-N; assay: NCI tumour cell line growth inhibition, 48 h

Example entries begin here.
* O=c1c2ccccc2[nH]c(=S)n1-c1ccc(N=Nc2cccc3c(O)cccc23)cc1 | > 100 µM
* C=CCN(CC=C)Cn1c(=S)sc2ccccc21 | > 100 µM
* Cc1cn(C2C=CC(COP(=O)(OCC3=CC(=O)c4ccccc4C3=O)N(C)CCCCCl)O2)c(=O)[nH]c1=O (stereo not given) | 4.22 µM
* CC1C(c2cc(C(C)(C)C)c(O)c(C(C)(C)C)c2)c2cc3c(cc2OC1N1CCOCC1)OCO3 (stereo not given) | > 100 µM

Shifting focus to the compound that follows.
Which TGI is reported for this compound? O=C1CC(C(O)CO)CC(=O)N1 (stereo not given)
> 100 µM

====

Entries annotated with measured TGI
system: HS 578T breast; experiment: NCI tumour cell line growth inhibition, 48 h
API: value field is a number in µM; no unit string.

Example entries begin here.
- CN=C(N)N/N=C(\c1ccccc1)c1ccc(Br)cc1: 5.37
- Cc1cn(C2C=CC(COP(=O)(OCC3=CC(=O)c4ccccc4C3=O)N(C)CCCCCl)O2)c(=O)[nH]c1=O (stereo not given): 18.6

Shifting focus to the compound that follows.
Provide the documented TGI with HS 578T breast as the system for `O=C(NS(=O)(=O)Nc1ccc(Cl)cc1)OCc1ccc(Cl)cc1Cl`
37.5

====

test system: NCI-H522 lung; experiment: NCI tumour cell line growth inhibition, 48 h
Measured Property: TGI

- Cc1cccc(N2C(=O)C3ON(C(C(N)=O)c4ccccc4)C(c4c5ccccc5c(Cl)c5ccccc45)C3C2=O)c1C (stereo unspecified): > 50 µM
- CCSc1nnc(CSc2nc(-c3ccccc3)c(-c3ccccc3)[nH]2)n1-c1ccccc1: 30.5 µM

Which TGI is reported for this compound? CCCN=C1CC(C)Nc2ccccc2N1 (stereo unspecified)
> 100 µM

Also `CC(C)(C)OC(=O)NC(C)(C)C(=O)NCCC(=O)O` ?
> 100 µM

Also `C=CC(=O)N[C@H]1C=C(C)c2c(-c3cnc4ccccc4c3)c3c(N)ncnc3n2C1` ?
20.4 µM

Also C=C1C(O)C2CCC(C)(C)C(=O)C2=C(CC(C)C)C12CC2 (stereo unspecified) ?
> 100 µM

====

system: ACHN renal; assay: NCI tumour cell line growth inhibition, 48 h
Measured Property: TGI

Which TGI is reported for this molecule? `COc1ccc(/C(=C/n2ccnc2)C(=O)c2ccc(OC)c(OC)c2)cc1`
> 100 µM

Also COC(=O)C1(Cc2ccccc2)Cc2cc3c(cc2C1=O)CCC3 (stereo not given) ?
> 100 µM

Also COc1c(C2CC(=O)Nc3c2cnn3Cc2ccco2)cc2c(c1OC)OCO2 (stereo not given) ?
> 100 µM

Also `CC(=O)c1ccc(Nc2cc(-c3ccccc3)nc3c(O)cccc23)cc1` ?
74.1 µM

Also CCOC(=O)C1(CC)CCCCC(=O)N1 (stereo not given) ?
> 100 µM

====

system: SR leukemia; experiment: NCI tumour cell line growth inhibition, 48 h
Entries annotated with measured TGI
API: value field is a number in µM; no unit string.

Which TGI is reported for this molecule? `CSC1=Nc2ccccc2N(C)c2c1c(-c1ccccc1)nn2C`
95

Also `CC(C)(C)c1cc(O)c(O)c(C(C)(C)C)c1` ?
6.64
